All figures here come from patent US20220160716A1.

# Target: CK1
# Method Description: Protein kinase catalytic activity assay, CK1
# Condition Description: read-out: IC50 of protein kinases, CK1
Measurement Label: IC50

# annotated cases, reported IC50 shown
# Structure, Target, Reported Value
rows = [
    ("CC[C@@H](Nc1nc(NCc2cccc(C(F)(F)F)c2)c2ncn(C3CCCC3)c2n1)C(=O)O", "CK1", "4 µM"),
    ("CC[C@@H](Nc1nc(NCc2cccc(Cl)c2)c2ncn(C3CCCC3)c2n1)C(=O)O", "CK1", "3.33 µM"),
    ("CC[C@@H](Nc1nc(NCc2cccc(F)c2)c2ncn(C3CCCC3)c2n1)C(=O)O", "CK1", "7 µM"),
    ("CC[C@@H](Nc1nc(NCc2ccc(F)c(F)c2)c2ncn(C3CCCC3)c2n1)C(=O)O", "CK1", "11 µM"),
]

API: the following record is the query input.
Entry `CC[C@@H](Nc1nc(NCc2ccc(Cl)c(F)c2)c2ncn(C3CCCC3)c2n1)C(=O)O` , IC50 reported as 6.1 µM

----------
# Target: CDK9/T (Homo sapiens, UniProt P50750)
# Sequence (P50750 whole entry, species assumed): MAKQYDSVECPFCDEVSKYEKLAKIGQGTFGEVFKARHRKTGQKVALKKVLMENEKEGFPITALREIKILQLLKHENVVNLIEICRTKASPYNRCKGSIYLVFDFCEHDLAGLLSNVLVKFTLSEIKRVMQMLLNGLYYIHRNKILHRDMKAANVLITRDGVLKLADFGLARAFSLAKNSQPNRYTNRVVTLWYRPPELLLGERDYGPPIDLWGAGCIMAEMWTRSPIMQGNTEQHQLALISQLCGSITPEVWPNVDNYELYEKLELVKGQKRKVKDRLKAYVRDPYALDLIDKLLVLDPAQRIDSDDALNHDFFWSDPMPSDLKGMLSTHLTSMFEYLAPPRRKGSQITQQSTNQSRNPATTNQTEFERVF
# Sequence (O60563 whole entry partner, species assumed): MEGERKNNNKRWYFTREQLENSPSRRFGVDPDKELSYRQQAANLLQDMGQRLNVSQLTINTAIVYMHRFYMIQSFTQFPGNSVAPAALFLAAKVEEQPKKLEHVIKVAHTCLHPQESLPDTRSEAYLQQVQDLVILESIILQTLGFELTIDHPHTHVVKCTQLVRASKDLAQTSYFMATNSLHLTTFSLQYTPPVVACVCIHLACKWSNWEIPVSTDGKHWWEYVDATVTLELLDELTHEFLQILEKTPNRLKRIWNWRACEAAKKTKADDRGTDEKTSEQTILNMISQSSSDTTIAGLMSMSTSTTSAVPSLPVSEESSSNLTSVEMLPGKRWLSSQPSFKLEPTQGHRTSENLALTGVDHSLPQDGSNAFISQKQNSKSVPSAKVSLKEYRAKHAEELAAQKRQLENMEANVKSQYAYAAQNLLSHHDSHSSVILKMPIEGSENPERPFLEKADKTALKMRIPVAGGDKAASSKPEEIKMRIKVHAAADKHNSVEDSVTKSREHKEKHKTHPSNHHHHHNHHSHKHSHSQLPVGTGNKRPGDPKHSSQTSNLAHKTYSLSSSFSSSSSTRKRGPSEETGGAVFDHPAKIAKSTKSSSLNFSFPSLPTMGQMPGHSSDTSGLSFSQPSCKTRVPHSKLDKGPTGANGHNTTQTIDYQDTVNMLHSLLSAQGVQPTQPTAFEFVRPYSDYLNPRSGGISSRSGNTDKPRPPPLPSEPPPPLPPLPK
# Method Description: Protein kinase catalytic activity assay, CDK9/cyclin T
# Condition Description: activator cyclin T; read-out: IC50 of protein kinases, CDK9/T
pIC50: −log10 of the molar value.
Label label 0 if pIC50 falls below 5; label label 1 in every other case.

Record `CC[C@@H](Nc1nc(NCc2ccc(Cl)c(F)c2)c2ncn(C3CCCC3)c2n1)C(=O)O` ; criterion: pIC50 no lower than 5. Met?
label 1

Record CC[C@@H](Nc1nc(NCc2ccccc2)c2ncn(C(C)C)c2n1)C(=O)O [M3, reference compound] ; criterion: pIC50 no lower than 5. Met?
label 0

Record `CC[C@@H](Nc1nc(NCc2cccc(C(F)(F)F)c2)c2ncn(C(C)C)c2n1)C(=O)O` ; criterion: pIC50 no lower than 5. Met?
label 0

Record `CC[C@@H](Nc1nc(NCc2cccc(C(F)(F)F)c2)c2ncn(C3CCCC3)c2n1)C(=O)O` ; criterion: pIC50 no lower than 5. Met?
label 0

----------
Recorded below: IC50, system CLK1 (Homo sapiens, UniProt P49759).
Your answer should be a plain number; it is taken to be in µM.

# annotated cases, reported IC50 shown
# Compound, Target, Measurement Unit, Reported Value
data = [
    ("CC[C@@H](Nc1nc(NCc2ccc(F)c(F)c2)c2ncn(C3CCCC3)c2n1)C(=O)O [MRT2-241]", "CLK1 (Homo sapiens, UniProt P49759)", "µM", 13),
    ("CC[C@@H](Nc1nc(NCc2ccccc2)c2ncn(C3CCCC3)c2n1)C(=O)O [MRT2-245]", "CLK1 (Homo sapiens, UniProt P49759)", "µM", 13),
    ("CC[C@@H](Nc1nc(NCc2cccc(C(F)(F)F)c2)c2ncn(C(C)C)c2n1)C(=O)O [MRT2-249]", "CLK1 (Homo sapiens, UniProt P49759)", "µM", 23),
    ("CC[C@@H](Nc1nc(NCc2cccc(C(F)(F)F)c2)c2ncn(C3CCCC3)c2n1)C(=O)O [MRT2-239]", "CLK1 (Homo sapiens, UniProt P49759)", "µM", 9),
]

Reported IC50 (CLK1 (Homo sapiens, UniProt P49759)) for entry CC[C@@H](Nc1nc(NCc2cccc(F)c2)c2ncn(C3CCCC3)c2n1)C(=O)O [MRT2-235] is 11

Reported IC50 (CLK1 (Homo sapiens, UniProt P49759)) for entry CC[C@@H](Nc1nc(NCc2ccc(Cl)c(F)c2)c2ncn(C3CCCC3)c2n1)C(=O)O [MRT2-243] is 20

Reported IC50 (CLK1 (Homo sapiens, UniProt P49759)) for entry CC[C@@H](Nc1nc(NCc2cccc(Cl)c2)c2ncn(C3CCCC3)c2n1)C(=O)O [MRT2-237] is 8.5
